assayTarget: HER2 (human epidermal growth factor receptor-2) (Homo sapiens)
Construct: begins at amino acid 676 followed by the remainder of the HER2 cytoplasmic domain; polyhistidine (N)
Sequence (P04626 676-1255 limits assumed): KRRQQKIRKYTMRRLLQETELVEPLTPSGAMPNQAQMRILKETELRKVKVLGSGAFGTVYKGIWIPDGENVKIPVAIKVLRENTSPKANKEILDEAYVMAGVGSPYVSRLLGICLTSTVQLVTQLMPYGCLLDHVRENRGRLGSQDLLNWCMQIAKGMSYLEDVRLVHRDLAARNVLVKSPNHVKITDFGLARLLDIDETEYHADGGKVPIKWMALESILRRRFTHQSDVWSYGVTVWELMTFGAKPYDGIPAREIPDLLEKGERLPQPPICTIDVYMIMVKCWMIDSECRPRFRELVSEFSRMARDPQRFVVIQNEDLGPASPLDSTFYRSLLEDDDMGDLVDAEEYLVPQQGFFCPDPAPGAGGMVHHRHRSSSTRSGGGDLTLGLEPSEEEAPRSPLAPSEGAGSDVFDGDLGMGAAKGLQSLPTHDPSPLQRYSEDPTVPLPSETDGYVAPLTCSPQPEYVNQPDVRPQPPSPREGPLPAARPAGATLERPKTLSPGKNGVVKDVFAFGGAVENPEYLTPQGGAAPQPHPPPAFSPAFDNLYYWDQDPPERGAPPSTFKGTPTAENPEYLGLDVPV
assayComment: Kinase Selectivity Assay HER2
Format: biochemical
conditionInfo: Kinase Selectivity, Tables 2a-2k; read-out: HER2 Kinase IC50
propertyName: IC50

Here's what some known entries look like.
compound: Nc1nc(Nc2ccccc2)nn1C(=O)c1ccccc1
assayTarget: HER2 (human epidermal growth factor receptor-2) (Homo sapiens)
measuredResult: 410 nM
//
compound: Nc1nc(Nc2cccc(Cl)c2)n(C(=O)c2c(F)cccc2F)n1
assayTarget: HER2 (human epidermal growth factor receptor-2) (Homo sapiens)
measuredResult: ~100000 nM
//
compound: CCc1ccc(C(=O)n2nc(Nc3ccc(S(=O)(=O)NCCN(C)C)cc3)nc2N)s1
assayTarget: HER2 (human epidermal growth factor receptor-2) (Homo sapiens)
measuredResult: 228 nM

Dear colleague, I am looking for the recorded IC50 of the following compound: Nc1nc(Nc2ccc(S(N)(=O)=O)cc2)nn1C(=O)c1c(F)cccc1Cl 1230 nM

Dear colleague, I am looking for the recorded IC50 of the following compound: Cc1ccsc1C(=O)n1nc(Nc2ccc(N3CCNC3=O)cc2)nc1N 68 nM

* * *

Tested on: HeLa cervical adenocarcinoma
assayComment: Inhibition of Cell Proliferation (14C-thymidine incorporation), HeLa
Format: cell-based
conditionInfo: Homo sapiens, HeLa cell line
propertyName: IC50 (nM)
# number only, unit nM dropped from output

Here's what some known entries look like.
molecule: CCc1ccc(C(=O)n2nc(Nc3ccc(S(N)(=O)=O)cc3)nc2N)s1 [Cpd 32]
IC50 (nM): 71
--
molecule: Nc1nc(Nc2ccc(S(N)(=O)=O)cc2)nn1C(=O)c1cccs1 [Cpd 14]
IC50 (nM): 550
--
molecule: Nc1nc(Nc2ccc(N3CCCS3(=O)=O)cc2)nn1C(=O)c1c(F)cccc1F [Cpd 117]
IC50 (nM): 2060
--
molecule: Nc1nc(Nc2ccc(S(=O)(=O)Nc3ccccn3)cc2)nn1C(=O)c1c(F)cccc1F [Cpd 118]
IC50 (nM): 1940

Dear colleague, I am looking for the recorded IC50 of the following molecule: CNS(=O)(=O)c1ccc(Nc2nc(N)n(C(=O)c3c(F)cccc3F)n2)cc1 [Cpd 80] 880

Dear colleague, I am looking for the recorded IC50 of the following molecule: Cc1ccsc1C(=O)n1nc(Nc2ccc(N3CCNC3=O)cc2)nc1N [Cpd 113] 242

Dear colleague, I am looking for the recorded IC50 of the following molecule: Cc1ccccc1C(=O)n1nc(Nc2ccc(S(N)(=O)=O)cc2)nc1N [Cpd 57] 339

* * *

assayTarget: Glycogen Synthase Kinase-3 (beta isoform) (Oryctolagus cuniculus, UniProt G1T8E2)
Construct: purchased New England Biolabs 6040; host or cells: E. coli
Sequence (G1T8E2 1-432): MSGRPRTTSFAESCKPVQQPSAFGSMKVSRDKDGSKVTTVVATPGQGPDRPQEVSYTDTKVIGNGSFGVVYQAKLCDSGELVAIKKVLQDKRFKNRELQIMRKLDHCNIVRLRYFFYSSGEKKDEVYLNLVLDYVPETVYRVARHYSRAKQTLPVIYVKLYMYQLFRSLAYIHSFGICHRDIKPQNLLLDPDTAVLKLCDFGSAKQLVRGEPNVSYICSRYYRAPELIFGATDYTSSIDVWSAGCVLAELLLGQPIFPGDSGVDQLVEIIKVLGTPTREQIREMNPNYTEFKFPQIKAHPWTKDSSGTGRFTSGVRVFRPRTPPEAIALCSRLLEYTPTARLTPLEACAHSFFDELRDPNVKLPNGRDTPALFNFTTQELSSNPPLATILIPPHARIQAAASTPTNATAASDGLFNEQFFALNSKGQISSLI
assayComment: Kinase Selectivity Assay Glycogen Synthase Kinase-3
Format: biochemical, rabbit
conditionInfo: Kinase Selectivity, Tables 2a-2k; read-out: GSK-3 IC50
Below, each of the compounds is paired with its reported pIC50 value.
Please report pIC50 as the negative decimal logarithm of the molar concentration, giving only the number.

compound: Nc1nc(Nc2ccc(S(N)(=O)=O)cc2)nn1C(=O)c1sccc1Cl [Cpd 17]
pIC50: 8.05
//
compound: Cc1ccsc1C(=O)n1nc(Nc2ccc(-n3cncn3)cc2)nc1N [Cpd 99]
pIC50: 7.52
//
compound: CCc1ccc(C(=O)n2nc(Nc3ccc(S(=O)(=O)NC)cc3)nc2N)s1 [Cpd 84]
pIC50: 7.72

Dear colleague, I am looking for the recorded pIC50 of the following compound: Nc1nc(Nc2ccc(S(N)(=O)=O)cc2)nn1C(=O)c1cccs1 [Cpd 14] 8.52

Dear colleague, I am looking for the recorded pIC50 of the following compound: Cc1ccsc1C(=O)n1nc(Nc2ccc(N3CCCS3(=O)=O)cc2)nc1N [Cpd 116] 7.21

Dear colleague, I am looking for the recorded pIC50 of the following compound: Nc1nc(Nc2ccc(S(=O)(=O)Nc3ccccn3)cc2)nn1C(=O)c1c(F)cccc1F [Cpd 118] 6.80

Dear colleague, I am looking for the recorded pIC50 of the following compound: Cc1ccsc1C(=O)n1nc(Nc2ccc(NS(C)(=O)=O)cc2)nc1N [Cpd 109] 7.41

Dear colleague, I am looking for the recorded pIC50 of the following compound: Cc1cc(C)c(C(=O)n2nc(Nc3ccc(S(=O)(=O)Nc4ccccn4)cc3)nc2N)s1 [Cpd 120] 7.74

* * *

assayTarget: PDGF-R (platelet derived growth factor receptor) beta subunit kinase domain (Homo sapiens)
Construct: nucleotides 1874-3507 of the human PDGF-R beta subunit kinase domain; polyhistidine (N)
Sequence (P09619 564-1106): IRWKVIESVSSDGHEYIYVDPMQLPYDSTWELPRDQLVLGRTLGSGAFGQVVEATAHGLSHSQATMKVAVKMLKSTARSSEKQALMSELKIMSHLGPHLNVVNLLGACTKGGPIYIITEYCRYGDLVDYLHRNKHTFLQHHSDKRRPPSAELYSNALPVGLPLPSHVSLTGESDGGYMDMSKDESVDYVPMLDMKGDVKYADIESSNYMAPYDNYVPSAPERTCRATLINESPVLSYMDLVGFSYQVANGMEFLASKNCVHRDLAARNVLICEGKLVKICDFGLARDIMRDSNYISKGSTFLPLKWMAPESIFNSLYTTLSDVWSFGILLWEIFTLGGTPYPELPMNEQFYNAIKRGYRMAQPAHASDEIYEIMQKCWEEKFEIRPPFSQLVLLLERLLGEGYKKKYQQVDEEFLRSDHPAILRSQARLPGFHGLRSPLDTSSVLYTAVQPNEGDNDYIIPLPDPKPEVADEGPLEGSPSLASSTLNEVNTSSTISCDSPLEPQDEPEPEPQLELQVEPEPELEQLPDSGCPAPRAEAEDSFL
assayComment: Kinase Selectivity Assay PDGF-R
Type: biochemical
conditionInfo: Kinase Selectivity, Tables 2a-2k; read-out: PDGF-R kinase IC50
Below, each of the compounds is paired with its reported IC50 value.
# number only, unit µM dropped from output

compoundStructure: Cc1cc(C)c(C(=O)n2nc(Nc3ccc(NS(C)(=O)=O)cc3)nc2N)s1
IC50 [µM]: 0.217
//
compoundStructure: CNS(=O)(=O)c1ccc(Nc2nc(N)n(C(=O)c3sccc3C)n2)cc1
IC50 [µM]: 0.042
//
compoundStructure: Cc1ccsc1C(=O)n1nc(Nc2ccc(NS(C)(=O)=O)cc2)nc1N
IC50 [µM]: 0.413

Dear colleague, I am looking for the recorded IC50 of the following compound: Nc1nc(Nc2ccc(S(N)(=O)=O)cc2)nn1C(=O)C1CCCC1 6.37

* * *

Below, each of the molecules is paired with its reported IC50 value.
assayTarget: MAP Kinase (ERK-2 isoform) (Rattus norvegicus)
Construct: polyhistidine (N); host or cells: E. coli
Sequence (P63086 whole entry, canonical isoform): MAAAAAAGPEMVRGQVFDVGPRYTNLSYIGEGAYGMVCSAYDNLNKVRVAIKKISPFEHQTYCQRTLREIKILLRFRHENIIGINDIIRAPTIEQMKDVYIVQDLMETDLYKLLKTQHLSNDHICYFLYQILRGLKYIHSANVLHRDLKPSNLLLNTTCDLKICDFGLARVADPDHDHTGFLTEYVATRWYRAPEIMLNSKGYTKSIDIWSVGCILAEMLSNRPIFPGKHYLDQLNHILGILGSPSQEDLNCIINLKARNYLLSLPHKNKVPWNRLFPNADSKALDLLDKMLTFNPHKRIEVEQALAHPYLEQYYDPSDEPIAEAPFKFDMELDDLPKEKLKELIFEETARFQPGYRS
assayComment: Kinase Selectivity Assay MAP Kinase (ERK-2)
Format: biochemical
conditionInfo: Kinase Selectivity, Tables 2a-2k; read-out: ERK 2 IC50
# number only, unit µM dropped from output

Here's what some known entries look like.
molecule: CC(O)c1ccc(F)c(C(=O)n2nc(Nc3ccc(S(N)(=O)=O)cc3)nc2N)c1F (stereo not drawn) [Cpd 58]
IC50, µM: 10.7

molecule: CC(C)(C)c1ccc(C(=O)n2nc(Nc3ccc(S(N)(=O)=O)cc3)nc2N)s1 [Cpd 51]
IC50, µM: 0.928

molecule: CCc1ccc(C(=O)n2nc(Nc3ccc(S(=O)(=O)NC)cc3)nc2N)s1 [Cpd 84]
IC50, µM: 1.22

molecule: Nc1nc(Nc2ccc(S(=O)(=O)N3CCCCC3)cc2)nn1C(=O)c1cccs1 [Cpd 23]
IC50, µM: 1.62

molecule: CNS(=O)(=O)c1ccc(Nc2nc(N)n(C(=O)c3c(F)ccc(C)c3F)n2)cc1 [Cpd 81]
IC50, µM: 11.7

molecule: Nc1nc(Nc2ccc(S(N)(=O)=O)cc2)nn1C(=O)c1sccc1Cl [Cpd 17]
IC50, µM: 1.87

Dear colleague, I am looking for the recorded IC50 of the following molecule: Nc1nc(Nc2ccc(S(N)(=O)=O)cc2)nn1C(=O)C1CCCC1 [Cpd 38] 24.2

Dear colleague, I am looking for the recorded IC50 of the following molecule: Nc1nc(Nc2ccc(S(N)(=O)=O)cc2)nn1C(=O)c1cccs1 [Cpd 14] 2.14

Dear colleague, I am looking for the recorded IC50 of the following molecule: Cc1ccc(F)c(C(=O)n2nc(Nc3ccc(S(=O)(=O)NCCN(C)C)cc3)nc2N)c1F [Cpd 105] 18.2

* * *

assayTarget: VEGF-R (vascular endothelial growth factor receptor-2) (Rattus norvegicus, UniProt O08775)
Construct: polyhistidine (6xHIS) (N)
Sequence (O08775 786-1343): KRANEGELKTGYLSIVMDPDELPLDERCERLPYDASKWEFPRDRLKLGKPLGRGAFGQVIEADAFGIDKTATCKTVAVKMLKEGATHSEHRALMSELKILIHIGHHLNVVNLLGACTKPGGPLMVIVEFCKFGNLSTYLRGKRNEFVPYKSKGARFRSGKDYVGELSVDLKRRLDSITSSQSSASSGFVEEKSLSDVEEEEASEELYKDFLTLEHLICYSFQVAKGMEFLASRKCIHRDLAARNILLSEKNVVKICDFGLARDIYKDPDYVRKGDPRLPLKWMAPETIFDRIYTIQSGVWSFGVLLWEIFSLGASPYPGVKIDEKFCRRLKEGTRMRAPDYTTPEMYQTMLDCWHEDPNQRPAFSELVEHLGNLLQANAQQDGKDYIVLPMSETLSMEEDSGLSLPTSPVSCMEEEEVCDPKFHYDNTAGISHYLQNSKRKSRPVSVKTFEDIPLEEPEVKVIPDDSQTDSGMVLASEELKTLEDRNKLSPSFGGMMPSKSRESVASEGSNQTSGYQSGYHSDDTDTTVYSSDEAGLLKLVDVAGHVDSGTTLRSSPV
assayComment: VEGF-R Screening Assay
Format: biochemical
conditionInfo: Table 1; read-out: VEGF-R IC50
pIC50: −log10 of the molar value.
pIC50 vs 6: at or above is true, below is false.

compoundStructure: Nc1nc(Nc2ccc(S(N)(=O)=O)cc2)nn1C(=O)c1c(F)ccc(F)c1F
assayTarget: VEGF-R (vascular endothelial growth factor receptor-2) (Rattus norvegicus, UniProt O08775)
label: true

Is reported pIC50 greater than or equal to 6 here: Nc1nc(Nc2ccc(S(N)(=O)=O)cc2)nn1C(=O)c1c(Cl)cccc1Cl false

Is reported pIC50 greater than or equal to 6 here: Nc1nc(Nc2ccc(S(N)(=O)=O)cc2)nn1C(=O)c1c(F)cccc1C(F)(F)F false

Is reported pIC50 greater than or equal to 6 here: Nc1nc(Nc2ccc(S(N)(=O)=O)cc2)nn1C(=O)/C=C/c1c(F)cccc1F false

Is reported pIC50 greater than or equal to 6 here: Nc1nc(Nc2ccc(S(N)(=O)=O)cc2)nn1C(=O)c1cccs1 true

Is reported pIC50 greater than or equal to 6 here: CCc1ccc(C(=O)n2nc(Nc3ccc(S(=O)(=O)NCCN(C)C)cc3)nc2N)s1 true

* * *

assayTarget: Glycogen Synthase Kinase-3 (beta isoform) (Oryctolagus cuniculus, UniProt G1T8E2)
Construct: purchased New England Biolabs 6040; host or cells: E. coli
assayComment: Kinase Selectivity Assay Glycogen Synthase Kinase-3
Format: biochemical, rabbit
conditionInfo: Kinase Selectivity, Tables 2a-2k; read-out: GSK-3 IC50
propertyName: IC50 (µM)
# number only, unit µM dropped from output

Here's what some known entries look like.
compoundStructure: Cc1cc(C)c(C(=O)n2nc(Nc3ccc(-n4ccnc4)cc3)nc2N)s1
unitOfMeasure: µM
measuredResult: 0.021
--
compoundStructure: CNS(=O)(=O)c1ccc(Nc2nc(N)n(C(=O)c3sc(C)cc3C)n2)cc1
unitOfMeasure: µM
measuredResult: 0.007

Dear colleague, I am looking for the recorded IC50 of the following compound: Cc1ccc(F)c(C(=O)n2nc(Nc3ccc(S(=O)(=O)NCCN(C)C)cc3)nc2N)c1F 0.082

Dear colleague, I am looking for the recorded IC50 of the following compound: CNS(=O)(=O)c1ccc(Nc2nc(N)n(C(=O)c3sccc3C)n2)cc1 0.025

Dear colleague, I am looking for the recorded IC50 of the following compound: Nc1nc(Nc2ccc(S(N)(=O)=O)cc2)nn1C(=O)c1sccc1F 0.004

Dear colleague, I am looking for the recorded IC50 of the following compound: Nc1nc(Nc2ccc(S(N)(=O)=O)cc2)nn1C(=O)C1CCCC1 0.122

Dear colleague, I am looking for the recorded IC50 of the following compound: CCc1ccc(C(=O)n2nc(Nc3ccc(NS(C)(=O)=O)cc3)nc2N)s1 0.008

Dear colleague, I am looking for the recorded IC50 of the following compound: Nc1nc(Nc2ccc(S(N)(=O)=O)cc2)n(C(=S)Nc2c(F)cccc2F)n1 0.094

Dear colleague, I am looking for the recorded IC50 of the following compound: CCc1ccc(C(=O)n2nc(Nc3ccc(S(=O)(=O)NCCN(C)C)cc3)nc2N)s1 0.013

Dear colleague, I am looking for the recorded IC50 of the following compound: CCc1ccc(C(=O)n2nc(Nc3ccc(S(N)(=O)=O)cc3)nc2N)s1 0.003

Dear colleague, I am looking for the recorded IC50 of the following compound: Cc1ccsc1C(=O)n1nc(Nc2ccc(S(=O)(=O)Nc3ccccn3)cc2)nc1N 0.029
